- Tested on: Vero
- experiment.description: Cytotoxicity against Chlorocebus aethiops (African green monkey) Vero cells infected with Toxoplasma gondii RH tachyzoites assessed as cell death and morphological alterations at 0.01 mM after 24 hr by microscopic analysis
- Assay type: cell-based
- condition.details: chlorocebus sabaeus, 10 µM
measure: Activity

{"query.smiles": "Oc1ccc(/C=N/NC(=S)Nc2ccccc2)c(O)c1O", "observed.result": "Non-toxic"}
{"query.smiles": "O=C(N/N=C/c1cc(O)c(O)cc1O)Nc1ccccc1", "observed.result": "Non-toxic"}
{"query.smiles": "COc1cc(O)cc(OC)c1/C=N/NC(=S)Nc1ccccc1", "observed.result": "Non-toxic"}

====

- experiment.description: Cytotoxicity against Chlorocebus aethiops (African green monkey) Vero cells infected with Toxoplasma gondii RH tachyzoites assessed as cell death and morphological alterations after 24 hr by microscopic analysis
- Assay type: cell-based
- condition.details: chlorocebus sabaeus, read-out: LD50
# reported CC50 at 24 h; entries follow
measure: CC50 at 24 h (µM)

{"compound": "O=C(/N=C/c1ccc(O)c(O)c1O)NNc1ccccc1", "measure": "CC50 at 24 h", "qualifier.symbol": "=", "observed.result": 70}
{"compound": "COc1cc(O)cc(OC)c1/C=N/NC(=S)Nc1ccccc1", "measure": "CC50 at 24 h", "qualifier.symbol": "=", "observed.result": 700}
{"compound": "COc1cc(O)cc(OC)c1/C=N/NC(=O)Nc1ccccc1", "measure": "CC50 at 24 h", "qualifier.symbol": ">", "observed.result": 1000}
{"compound": "Nc1ccc(S(=O)(=O)Nc2ncccn2)cc1 [SULFADIAZINE]", "measure": "CC50 at 24 h", "qualifier.symbol": ">", "observed.result": 10000}
{"compound": "Oc1cc(O)c(/C=N/NC(=S)Nc2ccccc2)cc1O", "measure": "CC50 at 24 h", "qualifier.symbol": "=", "observed.result": 300}
{"compound": "O=C(/N=C/c1cc(O)c(O)cc1O)NNc1ccccc1", "measure": "CC50 at 24 h", "qualifier.symbol": "=", "observed.result": 400}
{"compound": "O=C(N/N=C/c1ccc(O)c(O)c1O)Nc1ccccc1", "measure": "CC50 at 24 h", "qualifier.symbol": "=", "observed.result": 300}
{"compound": "Oc1ccc(/C=N/NC(=S)Nc2ccccc2)c(O)c1O", "measure": "CC50 at 24 h", "qualifier.symbol": "=", "observed.result": 400}
{"compound": "O=C(N/N=C/c1cc(O)c(O)cc1O)Nc1ccccc1", "measure": "CC50 at 24 h", "qualifier.symbol": "=", "observed.result": 300}
{"compound": "COc1cc(O)cc(OC)c1/C=N/C(=O)NNc1ccccc1", "measure": "CC50 at 24 h", "qualifier.symbol": ">", "observed.result": 1000}

Origin of values: ChEMBL document CHEMBL3046478
